# experimental.details: Percent change in the Vmax at a 10 uM concentration of the test compound; Minimal
# Type: ADME
observable: Delta Vmax

molecule=CN1CCN(C(=O)c2ccc(-n3ccnc3)cc2)CC1.Cl.Cl observed_result=Minimal
molecule=CCN(CC)CCNC(=O)c1ccc(-n2ccnc2)cc1.Cl.Cl observed_result=Minimal
molecule="CCN(CC)CCNC(=O)c1ccc(NS(C)(=O)=O)cc1.Cl [SEMATILIDE HYDROCHLORIDE]" observed_result=Minimal
molecule=CCN(CC)CCN(Cc1ccccc1)C(=O)c1ccc(-n2ccnc2)cc1 observed_result=Minimal
molecule=Cl.O=C(NCCNCc1ccccc1)c1ccc(-n2ccnc2)cc1 observed_result=Minimal

Data request, read-out Delta Vmax, for "CCN(CC)CCNC(=O)c1ccc(-c2ncc[nH]2)cc1.Cl.Cl" Minimal

Data request, read-out Delta Vmax, for "O=C(NC1CCN(Cc2ccccc2)CC1)c1ccc(-n2ccnc2)cc1" Minimal

Data request, read-out Delta Vmax, for "Cl.NCCNC(=O)c1ccc(-n2ccnc2)cc1" Minimal

Data request, read-out Delta Vmax, for "O=C(NCCN(Cc1ccccc1)Cc1ccccc1)c1ccc(-n2ccnc2)cc1" Minimal

Data request, read-out Delta Vmax, for "O=C(NC1CCNCC1)c1ccc(-n2ccnc2)cc1" Minimal

Data request, read-out Delta Vmax, for "CCN(CC)CCNC(=O)c1cccc(-n2ccnc2)c1.Cl.Cl" Minimal

Attribution: ChEMBL document CHEMBL1124733
